measurementTarget: GPR43 (Homo sapiens, UniProt O15552)
Construct: expressed in transfected cells
method: Calcium mobilization assay with probenecid
Assay type: cell-based
conditionLabel: GPR43 stably expressing cells; triggered with sodium acetate at EC80; 2.5 mM probenecid; read-out: GPR43 assay with probenicid IC50
Could you please report measured IC50 for the items listed next?

Request: Please list IC50 recorded for the molecule CC1(C(=O)N(CCS(N)(=O)=O)Cc2ccc(Cl)cc2)CCN1C(=O)c1csc2ccccc12 (stereo not shown) [Compound 192]
Response: 0.01 to 100 nM

Request: Please list IC50 recorded for the molecule CNS(=O)(=O)CCCN(Cc1ccc(Cl)cc1)C(=O)C1(C)CCN1C(=O)Cc1csc2ccccc12 (stereo not shown) [Compound 189]
Response: 0.01 to 100 nM

Request: Please list IC50 recorded for the molecule COC(=O)[C@@H](C)N(Cc1ccc(Cl)cc1)C(=O)C1(C)CCN1C(=O)Cc1cc(C)cc(C)c1 (stereo partly shown) [Compound 73]
Response: 501 to 1000 nM

Request: Please list IC50 recorded for the molecule CN(Cc1ccc(Cl)cc1)C(=O)C1(C)CCN1C(=O)Cc1cccc(-c2ccccc2)c1 (stereo not shown) [Compound 27]
Response: > 1000 nM

Request: Please list IC50 recorded for the molecule CN(Cc1ccc(Cl)cc1)C(=O)C1(C)CCN1C(=O)Cc1cccc(-c2cccc(Cl)c2)c1 (stereo not shown) [Compound 29]
Response: > 1000 nM

Request: Please list IC50 recorded for the molecule CS(=O)(=O)NC(=O)CCCN(Cc1cccc(Cl)c1)C(=O)C1(Cc2ccccc2)CCN1C(=O)c1csc2ccccc12 (stereo not shown) [Compound 230]
Response: 101 to 500 nM

Request: Please list IC50 recorded for the molecule CN(Cc1ccc(Cl)cc1)C(=O)C1(C)CCN1C(=O)Cc1cc(F)cc(F)c1 (stereo not shown) [Compound 19]
Response: > 1000 nM

---

measurementTarget: GPR43 (Homo sapiens)
Construct: expressed in transfected cells
Sequence (O15552 1-330): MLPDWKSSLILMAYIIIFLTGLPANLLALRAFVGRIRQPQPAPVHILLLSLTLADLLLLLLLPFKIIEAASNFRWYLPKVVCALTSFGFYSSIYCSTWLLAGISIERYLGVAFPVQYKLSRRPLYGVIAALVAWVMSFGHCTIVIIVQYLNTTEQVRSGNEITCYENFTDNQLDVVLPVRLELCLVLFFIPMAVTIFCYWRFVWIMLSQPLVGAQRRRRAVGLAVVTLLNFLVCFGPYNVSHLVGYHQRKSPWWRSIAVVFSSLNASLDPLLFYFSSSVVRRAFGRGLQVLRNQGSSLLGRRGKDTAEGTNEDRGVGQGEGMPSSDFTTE
method: Calcium mobilization assay with probenecid
Assay type: cell-based
conditionLabel: GPR43 stably expressing cells; triggered with sodium acetate at EC80; 2.5 mM probenecid; read-out: GPR43 assay with probenicid IC50
pIC50: −log10 of the molar value.
measure: pIC50

Request: Please list pIC50 recorded for the molecule Cc1c(C(=O)N2CCC2(C)C(=O)N(C)Cc2ccc(Cl)cc2)oc2ccccc12 (centres unmarked)
Response: < 6.00

Request: Please list pIC50 recorded for the molecule Cc1cc(C)cc(CC(=O)N2CCC2(C)C(=O)N(CCc2cc(O)[nH]n2)Cc2ccc(Cl)cc2)c1 (centres unmarked)
Response: < 6.00

Request: Please list pIC50 recorded for the molecule CC1(C(=O)N(CC(=O)O)Cc2ccc(Cl)cc2)CCN1C(=O)Cc1noc2ccccc12 (centres unmarked)
Response: < 6.00

Request: Please list pIC50 recorded for the molecule CC1(C(=O)N(CCCC(=O)O)Cc2ccc3ccoc3c2)CCN1C(=O)Cc1csc2ccccc12 (centres unmarked)
Response: 7.00 to 11.00

Request: Please list pIC50 recorded for the molecule Cc1cc(C)cc(CC(=O)N2CCC2(C)C(=O)N(Cc2ccc(Cl)cc2)C2CC2)c1 (centres unmarked)
Response: < 6.00

Request: Please list pIC50 recorded for the molecule Cc1cc(C)cc(CC(=O)N2CCC2(C)C(=O)N(CC(=O)N(C)C)Cc2ccc(Cl)cc2)c1 (centres unmarked)
Response: < 6.00

Request: Please list pIC50 recorded for the molecule COC(=O)CCN(Cc1cccc(Cl)c1)C(=O)C1(C)CCN1C(=O)Cc1csc2ccccc12 (centres unmarked)
Response: 6.30 to 7.00

Request: Please list pIC50 recorded for the molecule COC(=O)CN(Cc1cccc(Cl)c1)C(=O)C1(C)CCN1C(=O)Cc1csc2ccccc12 (centres unmarked)
Response: 6.00 to 6.30

// data source = patent US8759334B2
